- assay_notes: clinical
- assay_context: female, human, in vivo
measure_name: Tmax (h)
Numbers only, in h.

| smi | value_reported |
| --- | --- |
| CC(C)c1nc(CN(C)C(=O)N[C@H](C(=O)N[C@@H](Cc2ccccc2)C[C@H](O)[C@H](Cc2ccccc2)NC(=O)OCc2cncs2)C(C)C)cs1 | 6 |

// next entry
Query :: Please supply the value of reported Tmax for the item COC(=O)N[C@H](C(=O)N[C@@H](Cc1ccccc1)[C@@H](O)CN(Cc1ccc(-c2ccccn2)cc1)NC(=O)[C@@H](NC(=O)OC)C(C)(C)C)C(C)(C)C
Result :: 4

###

- assay_notes: clinical
- assay_context: female, human, in vivo
measure_name: Kp
Numbers only.

Query :: Please supply the value of reported Kp for the item COC(=O)N[C@H](C(=O)N[C@@H](Cc1ccccc1)[C@@H](O)CN(Cc1ccc(-c2ccccn2)cc1)NC(=O)[C@@H](NC(=O)OC)C(C)(C)C)C(C)(C)C
Result :: 0.18
